Kindly state efficacy for each of the entries shown.
Test system: Tetranychus urticae
Experiment: Tetranychus urticae spray test, OP-resistant (bean leaf discs)
Format: in vivo
Conditions: 100 g/ha; after 6 days
Answers are plain numbers, in %.

CC(=O)NCc1cc(-c2cnn(-c3c(C)cc(C(F)(C(F)(F)F)C(F)(F)F)cc3Cl)c2)ccc1Cl | 100

Would you mind giving efficacy for every compound in the list below?
1. CC(=O)NCc1cccc(-c2cnn(-c3c(Cl)cc(C(F)(C(F)(F)F)C(F)(F)F)cc3C(F)F)c2)c1F
2. CC(=O)NCc1cc(-c2cnn(-c3c(Cl)cc(C(F)(C(F)(F)F)C(F)(F)F)cc3Cl)c2)ccc1Br
3. CCC(=O)NCc1cc(-c2cnn(-c3c(C)cc(C(F)(C(F)(F)F)C(F)(F)F)cc3Cl)c2)ccc1C
4. CCC(=O)NCc1cc(-c2cnn(-c3c(Cl)cc(C(F)(C(F)(F)F)C(F)(F)F)cc3OC(F)(F)F)c2)ccc1F

[90, 100, 100, 90]

Would you mind giving efficacy for every compound in the list below?
1. N#Cc1cc(C(F)(C(F)(F)F)C(F)(F)F)cc(Cl)c1-n1cc(-c2cccc(CNC(=O)C3CC3)c2)cn1
2. CCC(=O)N(C)Cc1cc(-c2cnn(-c3c(Cl)cc(C(F)(C(F)(F)F)C(F)(F)F)cc3Cl)c2)ccc1Br

[90, 100]

====

Test system: Spodoptera frugiperda
Assay: Spodoptera frugiperda spray test
Format: in vivo
Conditions: 100 g/ha; after 7 days
reported.endpoint: efficacy (%)
One number for each entry, in %.

Solved cases below.
CCC(=O)NCc1cc(-c2cnn(-c3c(Cl)cc(C(F)(C(F)(F)F)C(F)(F)F)cc3Cl)c2)c(F)cc1Cl [Ia-111] | 100
CC(=O)NCc1cc(-c2cnn(-c3c(Cl)cc(C(F)(C(F)(F)F)C(F)(F)F)cc3C(F)F)c2)ccc1Cl [Ia-106] | 100

Would you mind giving efficacy for every compound in the list below?
1. CCC(=O)NCc1cc(-c2cnn(-c3c(Cl)cc(C(F)(C(F)(F)F)C(F)(F)F)cc3Cl)c2)ccc1Br [Ia-166]
2. CC(=O)NCc1cc(-c2cnn(-c3c(Cl)cc(C(F)(C(F)(F)F)C(F)(F)F)cc3C#N)c2)ccc1C [Ia-96]
3. CCCCC(=O)NCc1cc(-c2cnn(-c3c(Cl)cc(C(F)(C(F)(F)F)C(F)(F)F)cc3C(F)F)c2)ccc1F [Ia-59]
4. O=C(NCc1cc(-c2cn(-c3c(Cl)cc(C(F)(C(F)(F)F)C(F)(F)F)cc3Cl)nn2)ccc1Cl)C1CC1 [I-T7-03]
5. CC(=O)NCc1cc(-c2cnn(-c3c(Cl)cc(C(F)(C(F)(F)F)C(F)(F)F)cc3OC(F)(F)F)c2)cnc1Cl [Ia-131]
6. O=C(NCc1cc(-c2cnn(-c3c(Cl)cc(C(F)(C(F)(F)F)C(F)(F)F)cc3OC(F)F)c2)ccc1Cl)C1CC1 [Ia-52]
7. CC(=O)NCc1cccc(-c2cnn(-c3c(Cl)cc(C(F)(C(F)(F)F)C(F)(F)F)cc3Cl)c2)c1 [Ia-09]

1: 100; 2: 100; 3: 100; 4: 100; 5: 100; 6: 100; 7: 100

Would you mind giving efficacy for every compound in the list below?
1. CCC(=O)NCc1cc(-c2cnn(-c3c(Cl)cc(C(F)(C(F)(F)F)C(F)(F)F)cc3OC(F)F)c2)cnc1Cl [Ia-160]
2. CC(=O)NCc1cccc(-c2cnn(-c3c(C)cc(C(F)(C(F)(F)F)C(F)(F)F)cc3Cl)c2)c1 [Ia-68]
3. CCC(=O)NCc1cccc(-c2cnn(-c3c(C)cc(C(F)(C(F)(F)F)C(F)(F)F)cc3C)c2)c1 [Ia-28]
4. CCC(=O)NCc1c(F)ccc(-c2cnn(-c3c(Cl)cc(C(F)(C(F)(F)F)C(F)(F)F)cc3Cl)c2)c1F [Ia-148]
5. CCC(=O)NCc1cc(-c2cnn(-c3c(Cl)cc(C(F)(C(F)(F)F)C(F)(F)F)cc3C(F)F)c2)ccc1F [Ia-23]
6. CCC(=O)NCc1c(F)ccc(-c2cnn(-c3c(Cl)cc(C(F)(C(F)(F)F)C(F)(F)F)cc3OC(F)F)c2)c1F [Ia-157]

1: 100; 2: 83; 3: 100; 4: 100; 5: 100; 6: 100

Would you mind giving efficacy for every compound in the list below?
1. CCC(=O)N(C)Cc1cc(-c2cnn(-c3c(Cl)cc(C(F)(C(F)(F)F)C(F)(F)F)cc3OC(F)(F)F)c2)ccc1F [Ia-27]
2. CC(=O)NCc1cc(-c2cnn(-c3c(Cl)cc(C(F)(C(F)(F)F)C(F)(F)F)cc3C(F)(F)F)c2)ccc1F [Ia-82]
3. CC(=O)NCc1cccc(-c2cnn(-c3c(Cl)cc(C(F)(C(F)(F)F)C(F)(F)F)cc3OC(F)F)c2)c1F [Ia-155]
4. CCC(=O)NCc1cccc(-c2cnn(-c3c(Cl)cc(C(F)(C(F)(F)F)C(F)(F)F)cc3Cl)c2)c1F [Ia-152]
5. O=C(CC(F)(F)F)NCc1cccc(-c2cnn(-c3c(Cl)cc(C(F)(C(F)(F)F)C(F)(F)F)cc3Cl)c2)c1 [Ia-21]
6. CC(=O)NCc1c(F)ccc(-c2cnn(-c3c(Cl)cc(C(F)(C(F)(F)F)C(F)(F)F)cc3Cl)c2)c1F [Ia-149]
7. CCC(=O)NCc1cc(-c2cnn(-c3c(Cl)cc(C(F)(C(F)(F)F)C(F)(F)F)cc3C(F)(F)F)c2)cnc1Cl [Ia-138]
8. CC(=O)N(C)Cc1cc(-c2cnn(-c3c(Cl)cc(C(F)(C(F)(F)F)C(F)(F)F)cc3Cl)c2)cnc1Cl [Ia-73]

1. 100
2. 100
3. 100
4. 100
5. 100
6. 100
7. 100
8. 100

Would you mind giving efficacy for every compound in the list below?
1. CCC(=O)NC(C)c1cc(-c2cnn(-c3c(Cl)cc(C(F)(C(F)(F)F)C(F)(F)F)cc3Cl)c2)ccc1F (centres unmarked) [Ia-50]
2. CC(=O)NCc1cc(-c2cnn(-c3c(Cl)cc(C(F)(C(F)(F)F)C(F)(F)F)cc3C(F)F)c2)ccc1F [Ia-34]
3. CSc1cc(C(F)(C(F)(F)F)C(F)(F)F)cc(Cl)c1-n1cc(-c2ccc(F)c(CNC(C)=O)c2)cn1 [Ia-07]
4. CC(=O)NCc1c(F)ccc(-c2cnn(-c3c(Cl)cc(C(F)(C(F)(F)F)C(F)(F)F)cc3C(F)(F)F)c2)c1F [Ia-147]
5. CC(=O)NCc1cc(-c2cnn(-c3c(Cl)cc(C(F)(C(F)(F)F)C(F)(F)F)cc3Cl)c2)cnc1Cl [Ia-130]
6. N#Cc1cc(C(F)(C(F)(F)F)C(F)(F)F)cc(Cl)c1-n1cc(-c2ccc(F)c(CNC(=O)C3CC3)c2)cn1 [Ia-107]

1: 100; 2: 100; 3: 83; 4: 100; 5: 100; 6: 100

====

System: Tetranychus urticae
Test: Tetranychus urticae spray test, OP-resistant (bean leaf discs)
Format: in vivo
Conditions: 100 g/ha; after 6 days
reported.endpoint: efficacy (%)
Answers are plain numbers, in %.

Solved cases below.
CCC(=O)NCc1cc(-c2cnn(-c3c(Cl)cc(C(F)(C(F)(F)F)C(F)(F)F)cc3C(F)(F)F)c2)cnc1Cl [Ia-138] | 90
CC(=O)NCc1cc(-c2cnn(-c3c(Cl)cc(C(F)(C(F)(F)F)C(F)(F)F)cc3C(F)(F)F)c2)ccc1C [Ia-79] | 100

Would you mind giving efficacy for every molecule in the list below?
1. CC(=O)NCc1cccc(-c2cnn(-c3c(C)cc(C(F)(C(F)(F)F)C(F)(F)F)cc3Cl)c2)c1 [Ia-68]
2. CCC(=O)N(C)Cc1cc(-c2cnn(-c3c(Cl)cc(C(F)(C(F)(F)F)C(F)(F)F)cc3Cl)c2)cnc1Cl [Ia-134]
3. CC(=O)NCc1cc(-c2cnn(-c3c(C)cc(C(F)(C(F)(F)F)C(F)(F)F)cc3Cl)c2)ccc1C [Ia-75]
4. CCC(=O)NCc1cccc(-c2cnn(-c3c(Cl)cc(C(F)(C(F)(F)F)C(F)(F)F)cc3Cl)c2)c1 [Ia-08]
5. CC(=O)N(C)Cc1cc(-c2cnn(-c3c(F)cc(C(F)(C(F)(F)F)C(F)(F)F)cc3Br)c2)ccc1Cl [Ia-100]

[100, 100, 100, 90, 100]

====

System: Tetranychus urticae
Assay: Tetranychus urticae spray test, OP-resistant (bean leaf discs)
Format: in vivo
Conditions: 100 g/ha; after 6 days
reported.endpoint: efficacy (%)
One number for each entry, in %.

CC(=O)NCc1cc(-c2cn(-c3c(Cl)cc(C(F)(C(F)(F)F)C(F)(F)F)cc3Cl)nn2)ccc1Cl | 90
CCC(=O)NCc1cc(-c2cnn(-c3c(C)cc(C(F)(C(F)(F)F)C(F)(F)F)cc3Cl)c2)ccc1F | 100
C[S+]([O-])c1cc(C(F)(C(F)(F)F)C(F)(F)F)cc(Cl)c1-n1cc(-c2ccc(F)c(CNC(=O)C3CC3)c2)cn1 (stereo not shown) | 90

Kindly review the next molecule as well.
Give the measured efficacy for `CC(=S)N(C)Cc1cc(-c2cnn(-c3c(Cl)cc(C(F)(C(F)(F)F)C(F)(F)F)cc3Cl)c2)ccc1Cl`
100
